# Test Target: MATE1 (Homo sapiens, UniProt Q96FL8)
# Sequence (Q96FL8 whole entry): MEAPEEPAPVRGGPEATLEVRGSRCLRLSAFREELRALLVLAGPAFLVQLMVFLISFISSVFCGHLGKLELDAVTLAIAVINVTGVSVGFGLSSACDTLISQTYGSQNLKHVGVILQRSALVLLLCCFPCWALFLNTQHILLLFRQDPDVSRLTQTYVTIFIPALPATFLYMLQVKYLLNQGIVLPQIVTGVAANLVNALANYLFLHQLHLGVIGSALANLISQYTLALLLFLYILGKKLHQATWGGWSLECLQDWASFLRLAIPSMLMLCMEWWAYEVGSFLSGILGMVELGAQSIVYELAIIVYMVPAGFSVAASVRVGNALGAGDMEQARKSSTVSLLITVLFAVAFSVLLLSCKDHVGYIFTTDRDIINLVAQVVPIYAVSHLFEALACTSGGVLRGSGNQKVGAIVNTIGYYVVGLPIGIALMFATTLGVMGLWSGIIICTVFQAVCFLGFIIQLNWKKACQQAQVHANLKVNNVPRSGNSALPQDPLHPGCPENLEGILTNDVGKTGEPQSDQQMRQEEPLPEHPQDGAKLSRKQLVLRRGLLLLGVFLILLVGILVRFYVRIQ
# Test Description: Uptake ratio in MATE1-overexpressing HEK293 cells vs empty vector (2.5 μM, 1 min, HPLC-MS/MS)
# Type: cell-based
# Conditions Used: fold uptake over empty vector, 2.5 μM, 1 min
Parameter: MATE1 ratio. Scope: all listed entries.
Property Measured: MATE1 ratio

Compound: N#CC[C@H](C1CCCC1)n1cc(-c2ncnc3[nH]ccc23)cn1 [Ruxolitinib]
Property Measured: MATE1 ratio
Measured Result: 1.13
--
Compound: CC1(C)OC[C@@H](COC(=O)CCc2ccc(OC[C@@H](O)CNCCNC(=O)N3CCOCC3)cc2)O1 [Landiolol]
Property Measured: MATE1 ratio
Measured Result: 3.68
--
Compound: COc1ccc(CCNC[C@H](O)c2ccc(O)cc2)cc1OC [Denopamine (R), Denopamine]
Property Measured: MATE1 ratio
Measured Result: 2.32
--
Compound: CNC[C@H](O)c1ccc(O)c(O)c1 (racemic) [Epinephrine (rac), Epinephrine]
Property Measured: MATE1 ratio
Measured Result: 18.70
--
Compound: C1CNCCN1 [Piperazine]
Property Measured: MATE1 ratio
Measured Result: 0.92
--
Compound: COc1ccc(CC2c3cc(OC)c(OC)cc3CC[N+]2(C)CCC(=O)OCCCCCOC(=O)CC[N+]2(C)CCc3cc(OC)c(OC)cc3C2Cc2ccc(OC)c(OC)c2)cc1OC (stereo not drawn) [Atracurium]
Property Measured: MATE1 ratio
Measured Result: 1.13
--
Compound: CC(C)(CO)[C@@H](O)C(=O)NCCC(=O)O [Pantothenic acid]
Property Measured: MATE1 ratio
Measured Result: 1.48
--
Compound: COc1ccccc1OCCNCC(O)COc1cccc2[nH]c3ccccc3c12 [Carvedilol (S), Carvedilol]
Property Measured: MATE1 ratio
Measured Result: 1.19
--
Compound: CCc1cc2c(cc1CC)CC(NC[C@H](O)c1ccc(O)c3[nH]c(=O)ccc13)C2 [Indacaterol]
Property Measured: MATE1 ratio
Measured Result: 1.98
--
Compound: COc1ccc(-n2nc(C(N)=O)c3c2C(=O)N(c2ccc(N4CCCCC4=O)cc2)CC3)cc1 [Apixaban]
Property Measured: MATE1 ratio
Measured Result: 1.24
--
Compound: Nc1nc(CC(=O)Nc2ccc(CCNC[C@H](O)c3ccccc3)cc2)cs1 [Mirabegron]
Property Measured: MATE1 ratio
Measured Result: 8.19
--
Compound: OCCOCCN1CCN(C2=Nc3ccccc3Sc3ccccc32)CC1 [Quetiapine]
Property Measured: MATE1 ratio
Measured Result: 1.10
--
Compound: Cc1ccc(C23CNCC2C3)cc1 (stereo not drawn) [Bicifadine]
Property Measured: MATE1 ratio
Measured Result: 1.17
--
Compound: N[C@@H](CC(=O)N1CCn2c(nnc2C(F)(F)F)C1)Cc1cc(F)c(F)cc1F [Sitagliptin]
Property Measured: MATE1 ratio
Measured Result: 4.17
--
Compound: CC(C)(C)NCC(O)COc1ccccc1C#N (stereo not drawn) [Bunitrolol]
Property Measured: MATE1 ratio
Measured Result: 1.17
--
Compound: O=C(C[S+]([O-])Cc1ccco1)NC/C=C\COc1cc(CN2CCCCC2)ccn1 (stereo not drawn) [Lafutidine]
Property Measured: MATE1 ratio
Measured Result: 1.41
--
Compound: C[C@](N)(Cc1ccc(O)c(O)c1)C(=O)O [Methyldopa]
Property Measured: MATE1 ratio
Measured Result: 1.04
--
Compound: NCCCCN=C(N)N [Agmatine]
Property Measured: MATE1 ratio
Measured Result: 1.08
--
Compound: CCCCC[C@H](O)/C=C/[C@@H]1[C@@H](C/C=C\CCCC(=O)O)[C@@H](O)C[C@H]1O [Prostaglandin F2alpha]
Property Measured: MATE1 ratio
Measured Result: 1.41
--
Compound: CC12CC3CC(C)(C1)CC(N)(C3)C2 [Memantine]
Property Measured: MATE1 ratio
Measured Result: 1.03
--
Compound: COC(=O)[C@H]1[C@H]2C[C@@H]3c4[nH]c5cc(OC)ccc5c4CCN3C[C@H]2C[C@@H](OC(=O)c2cc(OC)c(OC)c(OC)c2)[C@@H]1OC [Reserpine]
Property Measured: MATE1 ratio
Measured Result: 1.61
--
Compound: Cc1cccc(C(C)c2cnc[nH]2)c1C (stereo not drawn) [Medetomidine]
Property Measured: MATE1 ratio
Measured Result: 1.11
--
Compound: CC[C@@H]1C(=O)OC[C@@H]1Cc1cncn1C [Pilocarpine]
Property Measured: MATE1 ratio
Measured Result: 1.39
--
Compound: C[C@@H]1O[C@@]2(CS1)CN1CCC2CC1 [Cevimeline]
Property Measured: MATE1 ratio
Measured Result: 1.59
--
Compound: Cc1ncc(CO)c(CN)c1O [Pyridoxamine]
Property Measured: MATE1 ratio
Measured Result: 2.68
--
Compound: Oc1ccc(CC2NCCc3cc(O)c(O)cc32)cc1 (stereo not drawn) [Higenamine]
Property Measured: MATE1 ratio
Measured Result: 14.55
--
Compound: Cc1oc2nc3c(c(NC(=O)CN4CCCC4=O)c2c1C)CCCC3 [Coluracetam]
Property Measured: MATE1 ratio
Measured Result: 0.97
--
Compound: OCCN(CCO)c1nc(N2CCCCC2)c2nc(N(CCO)CCO)nc(N3CCCCC3)c2n1 [Dipyridamole]
Property Measured: MATE1 ratio
Measured Result: 1.11
--
Compound: C=CCN1C[C@H](C(=O)N(CCCN(C)C)C(=O)NCC)C[C@@H]2c3cccc4[nH]cc(c34)C[C@H]21 [Cabergoline]
Property Measured: MATE1 ratio
Measured Result: 1.20
--
Compound: [H]/N=C(\N/C(=N/[H])NCCCCCCNC(=N)NC(=N)Nc1ccc(Cl)cc1)Nc1ccc(Cl)cc1 [Chlorhexidine]
Property Measured: MATE1 ratio
Measured Result: 1.08
--
Compound: N=C(N)NCCCCNC(=N)N [Arcaine, 1,4-diguanidinobutane]
Property Measured: MATE1 ratio
Measured Result: 40.20
--
Compound: C[N+](C)(C)C[C@@H](CC(=O)[O-])OC(=O)CCC(=O)O [Succinylcarnitine]
Property Measured: MATE1 ratio
Measured Result: 0.54
--
Compound: OC(CCN1CCCCC1)(c1ccccc1)C1CC2C=CC1C2 (stereo not drawn) [Biperiden]
Property Measured: MATE1 ratio
Measured Result: 1.24
--
Compound: CC(C)NCC(O)c1cc(O)cc(O)c1 (stereo not drawn) [Orciprenaline]
Property Measured: MATE1 ratio
Measured Result: 34.88
--
Compound: C[C@H](NCCc1ccc(O)cc1)[C@H](O)c1ccc(O)cc1 (racemic) [Ritodrine]
Property Measured: MATE1 ratio
Measured Result: 8.03
--
Compound: Nc1ccn([C@@H]2O[C@H](CO)[C@@H](O)C2(F)F)c(=O)n1 [Gemcitabine]
Property Measured: MATE1 ratio
Measured Result: 1.29
